GI50 listing for selected compounds.
- Tested on: HCT-116
- Procedure Details: NCI tumour cell line growth inhibition, 48 h
Activity calls are given as the source filed them. Rule as the data show it: active = GI50 up to about 1.1 µM and inactive = higher.
Assay Readout: GI50

> print(dat)
                                   compound               result
1  COc1ccc2nc3c(nc2c1)C(C)(C)C=C3c1ccc(Br)cc1  > 100 µM (inactive)
2       O=C(O)/C=C/c1ccc(Oc2ccccc2C(=O)O)o1   > 10 µM (inactive)
3  O=C(O)c1c(CC(Cc2ccc3c(c2)CCCC3)C(=O)O)ccc2c1CCCC2 (stereo unspecified)  > 100 µM (inactive)
4  CCCCCCC1=NOC(C(c2cc[nH]c2)N(C)[C@H](C(=O)OC)C(C)C)C1 (stereo partly specified)   34.4 µM (inactive)
5  S=C1NC2=C(COc3ccccc32)C(c2ccc(Cl)cc2)N1 (stereo unspecified)   15.5 µM (inactive)
6                         CN(C)C(=N)NC(N)=S  > 100 µM (inactive)

----------
- Test system: HCC 2998
- Procedure Details: NCI tumour cell line growth inhibition, 48 h
Calls of active or inactive are those of the source. Rule as the data show it: active = GI50 up to about 1.1 µM and inactive = higher.
Outcomes: True = active, False = inactive

> print(dat)
                                    molecule  label.class
 1  COc1cc2c(c(OC)c1OC)-c1ccc(SC)c(=O)cc1C(CO)C2 (centres undefined)         True
 2    CC(=O)NC(CS)C(=O)O (centres undefined)        False
 3  Nc1nc(F)nc2c1ncn2C1OC(COP(=O)(O)O)C(O)C1O (centres undefined)        False
 4         COc1ccccc1/C(=N\OCCC(=O)O)c1cccs1        False
 5  CCOC(=O)C(Cc1c(-c2[nH]c3ccccc3c2CC(NC(=O)CNC(C)=O)C(=O)OCC)[nH]c2ccccc12)NC(=O)CNC(C)=O (centres undefined)        False
 6           Cc1[nH]c2ncn3ncnc3c2c1Cc1ccccc1        False
 7  O=C(/C=C/c1ccccc1)Oc1ccc(C(=O)/C=C/c2ccc(Cl)cc2)cc1        False
 8               CC1(C)C=[N+]([O-])C(C)(C)N1        False
 9  CC(C)(C)C(=O)OC(N)/C=C/c1ccccc1 (centres undefined)        False
10  CC1(c2ccc(F)cc2)CC(c2ccc(F)cc2)=C(C#N)C(=C(C#N)C#N)N1 (centres undefined)        False
11             CC(C)Cc1cnc(CC(C)C)c(=O)[nH]1        False
12  CN(C)C(=S)OC(Cn1cncn1)c1ccc(Cl)cc1Cl (centres undefined)        False
13                    Cn1ccnc1CCc1ccc(F)cc1F        False
14  C=C1C(=O)O[C@H]2C1C[C@H](O)/C(C)=C/CC[C@@]1(C)O[C@H]21 (some centres undefined)        False
15  C[C@H](C(=O)O)C(=O)NC(=O)N(Cc1ccccc1)N=O        False
16  O=C1c2ccccc2C(=O)N1CCCCNOCCCN1C(=O)c2ccccc2C1=O        False
17  CC(=O)/N=C1/N(/C=C2\C(=O)Oc3ccccc3C2=O)C(=O)/C(=C/c2cccc(Cl)c2Cl)N1C        False
18  C=C1C(=O)C23CC1C[C@H](OC(C)=O)C2C1(C)C(OC(C)=O)C[C@H](O)C(C)(C)[C@H]1C(O)[C@@H]3OC(C)=O (some centres undefined)        False
19  CC1CNC(c2ccc(COc3ccc(C4=NC(C)CN4)cc3)cc2)=N1 (centres undefined)        False

Ref: ChEMBL document CHEMBL1201862
